Tested on: A549
Run description: Growth inhibition of human A549 cells after 48 hrs by SRB assay
Type: functional
Setup conditions: A549, 48 h
Readout name: GI50 (µM)
Numbers only; they are read as µM.

Given the entry "COC1=C(OC)[C@H](OC(C)=O)[C@H](C/C=C(\C)CC/C=C(\C)C[C@H](O)/C=C(\C)CO)[C@@H](C)C1=O" , report its measured GI50. 29

Given the entry "COC1=C(OC)[C@H](O)[C@H](C/C=C(\C)CC/C=C(\C)C/C=C/C(C)(C)O)[C@@H](C)C1=O" , report its measured GI50. 23.8

Given the entry "COC1=C(OC)[C@H](O)[C@H](C/C=C(\C)CC/C=C(\C)C[C@H](O)C=C(C)C)[C@@H](C)C1=O" , report its measured GI50. 9.6

Given the entry "COC1=C(OC)[C@H](O)[C@H](C/C=C(\C)CC/C=C(\C)CC/C=C(\C)CO)[C@@H](C)C1=O" , report its measured GI50. 8.2

Given the entry "COC1=C(OC)[C@H](O)[C@H](C/C=C(\C)CC/C=C(\C)CCC=C(C)C)[C@@H](C)C1=O" , report its measured GI50. 5.7

Given the entry "COC1=C(OC)[C@H](OC(C)=O)[C@H](C/C=C(\C)CC/C=C(\C)C[C@@H]2C[C@@H](C)C(=O)O2)[C@@H](C)C1=O" , report its measured GI50. 11.3

Given the entry "O=c1[nH]cc(F)c(=O)[nH]1" , report its measured GI50. 4.2

Given the entry "COC1=C(OC)[C@H](O)[C@H](C/C=C(\C)CC/C=C(\C)C[C@H](O)/C=C(\C)CO)[C@@H](C)C1=O" , report its measured GI50. 12

Given the entry "COC1=C(OC)[C@H](OC(C)=O)[C@H](C/C=C(\C)CC/C=C(\C)C[C@H](O)C=C(C)C)[C@@H](C)C1=O" , report its measured GI50. 20.7

Given the entry "COC1=C(OC)[C@H](O)[C@H](C/C=C(\C)CC/C=C(\C)C[C@@H]2C[C@@H](C)C(=O)O2)[C@@H](C)C1=O" , report its measured GI50. 14.1

Given the entry COC1=C(OC)[C@H](O)[C@H](C/C=C(\C)CC/C=C(\C)CCCC(C)CO)[C@@H](C)C1=O (stereo not given in full) , report its measured GI50. 7.1

Given the entry "COC1=C[C@H](O)[C@H](C/C=C(\C)CC/C=C(\C)CCC=C(C)C)[C@@H](C)C1=O" , report its measured GI50. 16.4

Where do these numbers come from? They come from ChEMBL document CHEMBL4130436.
